# subject.of.test: hFSH-R (Homo sapiens, UniProt P23945)
# Sequence (P23945 18-695): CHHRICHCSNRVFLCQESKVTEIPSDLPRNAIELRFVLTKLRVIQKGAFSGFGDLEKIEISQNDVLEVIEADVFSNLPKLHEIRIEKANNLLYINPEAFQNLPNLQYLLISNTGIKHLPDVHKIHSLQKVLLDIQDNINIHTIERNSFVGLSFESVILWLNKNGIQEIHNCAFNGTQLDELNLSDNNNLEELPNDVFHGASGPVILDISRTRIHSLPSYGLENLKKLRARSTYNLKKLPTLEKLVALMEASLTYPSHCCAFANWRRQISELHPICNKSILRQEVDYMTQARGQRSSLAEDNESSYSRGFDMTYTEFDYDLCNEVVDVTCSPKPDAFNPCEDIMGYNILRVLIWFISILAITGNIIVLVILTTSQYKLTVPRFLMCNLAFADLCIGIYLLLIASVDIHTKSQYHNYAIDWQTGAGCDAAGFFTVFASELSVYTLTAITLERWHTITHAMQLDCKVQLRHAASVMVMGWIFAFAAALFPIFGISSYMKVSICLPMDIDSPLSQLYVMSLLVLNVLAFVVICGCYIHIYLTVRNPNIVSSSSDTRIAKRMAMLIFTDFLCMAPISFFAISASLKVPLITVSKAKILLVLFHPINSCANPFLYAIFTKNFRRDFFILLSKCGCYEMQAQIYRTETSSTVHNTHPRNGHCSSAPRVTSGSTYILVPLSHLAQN
# experiment.description: cAMP accumulation (RIA) in CHO-3D2 cells (hFSH-R), hFSH-induced
# test.context: inhibition of cAMP accumulation induced by hFSH at EC20, CHO-3D2 cells
Give measured pIC50 for each item. Keep answers brief.
Lab note: report pIC50 as minus log10 of the concentration in molar units, number only.

The recorded pIC50 for entry O=C(NCc1cccnc1)c1ccc2n1Cc1ccccc1N(C(=O)c1ccc(N3CCCCC3)cc1)C2 [Example 113] equals 6.10

Form: molecule = Cc1ccccc1-c1ccc(C(=O)N2Cc3ccc(C(=O)NCc4ccc[n+]([O-])c4)n3Cc3ccccc32)cc1C [Example 4] ; pIC50 = 6.10

Sure, the documented pIC50 for CC(O)c1ccccc1-c1ccc(C(=O)N2Cc3ccc(C(=O)NCc4cccnc4)n3Cc3ccccc32)cc1 (single isomer, unassigned; (+)) [Example 54] is 6.82

// pIC50 lookup, molecule = CC(=O)c1ccccc1-c1ccc(C(=O)N2Cc3ccc(C(=O)NCc4cccnc4)n3Cc3ccccc32)cc1 [Example 51] , result: 7.00

Value of pIC50 reported for the molecule Cc1cc(C(=O)N2Cc3ccc(C(=O)NCc4cccnc4)n3Cc3ccccc32)ccc1-c1ccccc1F [Example 20] is 5.89

get_value(item= CCCc1ccc(C(=O)N2Cc3ccc(C(=O)NCc4cccnc4)n3Cc3ccccc32)cc1 [Example 98] , readout=pIC50) returns 6.40

Value of measured pIC50 for the entry NC(=O)Cc1ccccc1-c1ccc(C(=O)N2Cc3ccc(C(=O)NCc4cccnc4)n3Cc3ccccc32)cc1 [Example 38] : 7.05

These measurements were taken from patent US7678787B2.
